Values compiled from PubChem BioAssay (NCI).

Each entry below carries its reported growth.
system: SK-OV-3 ovarian; experiment: NCI-60 one-dose screen, 48 h (100 = growth as untreated, 0 = no growth, -100 = all killed); details: 10 µM unless noted
The panel holds about 83,000 compounds, 20% with a hit somewhere; the sample as a whole holds those more often.
Value Type: growth (%)

1) O=C(Nc1ccccc1)c1cc2ccccc2s1 :: 99.4
2) O=C1CCCN1C(O)CCN(Cc1ccccc1)Cc1ccc(Cl)cc1 (configuration not stated) :: 101
3) O=c1c2cc(Cl)ccc2oc2ccc(OCCCCCN3CCCCCC3)cc12 :: 78.9
4) COc1cc(C2CC(c3ccc(Cl)cc3)=NN2C=O)ccc1Oc1ccnc2cc(Cl)ccc12 (configuration not stated) :: 60
5) COc1cc(NCCC2CCCCN2)c2ncccc2c1OC (configuration not stated) :: 116
6) CC(C)(C)[Si](C)(C)OC1[C@@H](O[Si](C)(C)C(C)(C)C)[C@@H](CNC(=O)NC(=O)NC(=O)CI)O[C@H]1n1cnc2c(NC(=O)Nc3ccccc3)ncnc21 (some centres not stated) :: 92.6
7) Cc1cccc(N=NC(=S)NNc2cccc(C)c2)c1 :: 105

---

tested on: HS 578T breast; test: NCI-60 one-dose screen, 48 h (100 = growth as untreated, 0 = no growth, -100 = all killed); details: 10 µM unless noted
The panel holds about 83,000 compounds, 20% with a hit somewhere; the sample as a whole holds those more often.
Criterion: growth strictly under 50%. Met: true (1). Not met: false (0).

1. CC(C)(c1ccccc1)c1cc(O)c(C(C)(C)c2ccccc2)cc1O :: true (1)
2. COc1ccccc1CNCCCN1C(=O)c2ccc3c4c(ccc(c24)C1=O)C(=O)N(CCCOCCCCOCCCN)C3=O :: true (1)
3. Cc1ccccc1Nc1n[nH]c(Cc2ccccc2)n1 :: false (0)
4. O=C(c1ccccc1)c1cccc(C(Br)Br)c1 :: false (0)
5. COc1ccc2nc3ccccc3c(NCc3ccc(C)cc3)c2c1 :: true (1)
6. O=C(Cc1ccc([N+](=O)[O-])cc1)Oc1ccccc1 :: false (0)
7. CC(=O)c1ccc(Br)c([N+](=O)[O-])c1 :: false (0)
8. O=C(O)c1cc2cc(OCc3ccccc3)ccc2[nH]1 :: false (0)
9. COc1ccc2[nH]cc(C3(c4c[nH]c5ccc(OC)cc45)C(=O)Nc4ccc(F)cc43)c2c1 :: false (0)
10. COc1cccc(/C=N\Nc2ccc([N+](=O)[O-])cn2)c1O :: false (0)
11. COc1ccc(CNc2c3ccccc3nc3ccc(OC)cc23)cc1 :: true (1)
12. c1cn2cc(-c3ccc4ncn(C5CCCCC5)c4c3)nc(-c3ccc4c(c3)ncn4C3CCCCC3)c2n1 :: true (1)
13. CC(=O)Oc1ccccc1C(=O)Nc1ncc([N+](=O)[O-])s1 :: true (1)
14. COc1cc(OC)c(Cl)cc1N :: false (0)
15. Cc1ccc([C@H]2c3[nH]c4ccccc4c3C[C@H]3C(=O)N(CCCCCCC(=O)NO)CC(=O)N23)cc1 :: false (0)
16. CC(NC(=O)c1ccccc1)C(=O)Nc1ccccc1 (stereo unspecified) :: false (0)
17. Cc1c(C(=O)CCl)c(=O)n(-c2ccccc2)n1C :: false (0)
18. S=C(Nc1ccc(Cl)cc1)Nc1ccc(Cl)cc1 (tested in a mixture with another compound) :: true (1)
19. O=C1CCCN1C(O)CCN(Cc1ccccc1)Cc1ccc(Cl)cc1 (stereo unspecified) :: false (0)
20. CCCCCCCCCCCC1=NC(C)(C)CN1C(C)C :: false (0)
